Molecular target: T1, FZD4 cysteine-rich domain (CRD), MYC-tagged and GPI-anchored on CHO cells (human, UniProt Q9ULV1 42-167, GPI anchor)
T1 construct: also called FZD4 CRD; CHO-myc-FZDGPI; not shown: MYC tag and GPI anchor signal
T1 sequence: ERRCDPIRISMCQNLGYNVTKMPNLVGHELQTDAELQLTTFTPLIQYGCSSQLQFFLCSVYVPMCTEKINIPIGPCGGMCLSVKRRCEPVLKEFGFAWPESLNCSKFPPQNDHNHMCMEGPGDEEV
Test: immunofluorescence, CHO-CRD cells
measuredQuantity: binding result

binder	measuredQuantity	result
Fab-2907 (Fab, V domains shown, Fab; also called Fv-2907) VH: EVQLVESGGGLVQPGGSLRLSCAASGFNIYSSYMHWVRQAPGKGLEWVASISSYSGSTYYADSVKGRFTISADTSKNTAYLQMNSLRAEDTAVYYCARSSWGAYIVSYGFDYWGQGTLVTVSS VL: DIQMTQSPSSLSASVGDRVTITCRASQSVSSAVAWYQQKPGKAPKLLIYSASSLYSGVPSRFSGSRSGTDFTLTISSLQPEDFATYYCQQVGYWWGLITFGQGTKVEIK	binding result	no binding
Fab-2898 (Fab, V domains shown, Fab; also called Fv-2898) VH: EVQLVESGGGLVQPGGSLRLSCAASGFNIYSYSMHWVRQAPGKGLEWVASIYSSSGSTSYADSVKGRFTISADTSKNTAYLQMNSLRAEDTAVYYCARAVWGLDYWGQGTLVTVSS VL: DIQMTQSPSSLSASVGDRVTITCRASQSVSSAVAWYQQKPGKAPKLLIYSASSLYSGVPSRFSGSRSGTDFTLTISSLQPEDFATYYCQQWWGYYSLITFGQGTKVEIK	binding result	no binding
Fab-2926 (Fab, V domains shown, Fab; also called Fv-2926) VH: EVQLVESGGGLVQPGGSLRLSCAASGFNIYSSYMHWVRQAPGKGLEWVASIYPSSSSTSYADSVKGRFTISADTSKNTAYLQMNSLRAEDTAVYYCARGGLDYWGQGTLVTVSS VL: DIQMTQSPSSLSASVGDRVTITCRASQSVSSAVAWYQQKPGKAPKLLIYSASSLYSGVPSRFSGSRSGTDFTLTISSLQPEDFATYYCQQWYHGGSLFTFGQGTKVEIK	binding result	no binding
